Assay: refractive index (Na D-line) (dimensionless)
Settings: 308.15 K; 101.33 kPa; Liquid; Standard Abbe refractometry
MEASUREMENT KIND: refractive index
Give bare numbers.

COMPOUND | refractive index
CCCCCCCC[n+]1ccccc1.O=S(=O)([N-]S(=O)(=O)C(F)(F)F)C(F)(F)F [1-octylpyridinium bis((trifluoromethyl)sulfonyl)amide] | 1.44413
CCCCCCCCCCCC[n+]1ccccc1.O=S(=O)([N-]S(=O)(=O)C(F)(F)F)C(F)(F)F [1-dodecylpyridinium bis(trifluoromethylsulfonyl)imide] | 1.44668
CCCCCCCCCC[n+]1ccccc1.O=S(=O)([N-]S(=O)(=O)C(F)(F)F)C(F)(F)F [1-decylpyridinium bis(trifluoromethylsulfonyl)imide] | 1.44546

IN: Given the compound CCCC[n+]1ccccc1.O=S(=O)([N-]S(=O)(=O)C(F)(F)F)C(F)(F)F [1-butylpyridinium bis[(trifluoromethyl)sulfonyl]imide] , what is its reported refractive index?
OUT: 1.44057
